We begin with a simple list: items and their reported MIC.
System: Escherichia coli
Test: Antimicrobial activity against Escherichia coli MTCC 443 for 24 hrs by microdilution method
Type: functional
Recorded conditions: MTCC 443, 24 h
Quantity measured: MIC

> print(dat)
                                   compound  quantity.measured  value.reported
1  N#CC1=C(N)OC2=C(C(=O)CCC2)C1c1cc2ccccc2nc1N1CCOCC1 (centres undefined)                MIC       250 µg/mL
2  CC1(C)CC(=O)C2=C(C1)OC(N)=C(C#N)C2c1cc2ccccc2nc1N1CCOCC1 (centres undefined)                MIC       250 µg/mL
3  COc1ccc2nc(N3CCOCC3)c(C3C(C#N)=C(N)Oc4cc(C)oc(=O)c43)cc2c1 (centres undefined)                MIC       200 µg/mL
4  Cc1ccc2nc(N3CCOCC3)c(C3C(C#N)=C(N)OC4=C3C(=O)CC(C)(C)C4)cc2c1 (centres undefined)                MIC       200 µg/mL

* * *

System: Escherichia coli
Test: Antimicrobial activity against Escherichia coli MTCC 443 for 24 hrs by microdilution method
Type: functional
Recorded conditions: MTCC 443, 24 h
Quantity measured: MIC (µg/mL)

> print(dat)
                                   molecule  measurement.unit  value.reported
1  N#CC1=C(N)OC2=C(C(=O)c3ccccc3C2=O)C1c1cc2ccccc2nc1N1CCOCC1 (centres undefined)             µg/mL             200
2  Cc1ccc2nc(N3CCOCC3)c(C3C(C#N)=C(N)Oc4c3ccc3ccccc43)cc2c1 (centres undefined)             µg/mL             200
3  COc1ccc2nc(N3CCOCC3)c(C3C(C#N)=C(N)Oc4cc(O)ccc43)cc2c1 (centres undefined)             µg/mL             250
4  Cc1ccc2nc(N3CCOCC3)c(C3C(C#N)=C(N)OC4=C3C(=O)c3ccccc3C4=O)cc2c1 (centres undefined)             µg/mL             250

* * *

Test system: Vibrio cholerae
Test: Antimicrobial activity against Vibrio cholerae MTCC 3906 for 24 hrs by microdilution method
Format: functional
Recorded conditions: MTCC 3906, 24 h
Quantity measured: MIC

> print(dat)
                                   compound  value.reported
1  COc1ccc2nc(N3CCOCC3)c(C3C(C#N)=C(N)Oc4cc(O)ccc43)cc2c1 (stereo not drawn)       250 µg/mL
2  N#CC1=C(N)OC2=C(C(=O)CCC2)C1c1cc2ccccc2nc1N1CCOCC1 (stereo not drawn)       250 µg/mL
3  Cc1cc2c(c(=O)o1)C(c1cc3ccccc3nc1N1CCOCC1)C(C#N)=C(N)O2 (stereo not drawn)       100 µg/mL

* * *

System: Vibrio cholerae
Test: Antimicrobial activity against Vibrio cholerae MTCC 3906 for 24 hrs by microdilution method
Assay type: functional
Recorded conditions: MTCC 3906, 24 h
Quantity measured: MIC (µg/mL)

> print(dat)
                                    molecule  value.reported
 1  COc1ccc2nc(N3CCOCC3)c(C3C(C#N)=C(N)OC4=C3C(=O)c3ccccc3C4=O)cc2c1 (stereo not given)             250
 2  Cc1ccc2nc(N3CCOCC3)c(C3C(C#N)=C(N)Oc4cc(C)oc(=O)c43)cc2c1 (stereo not given)             200
 3  CC1(C)CC(=O)C2=C(C1)OC(N)=C(C#N)C2c1cc2ccccc2nc1N1CCOCC1 (stereo not given)             250
 4  Cc1ccc2nc(N3CCOCC3)c(C3C(C#N)=C(N)Oc4cc(O)ccc43)cc2c1 (stereo not given)             200
 5  Cc1ccc2nc(N3CCOCC3)c(C3C(C#N)=C(N)OC4=C3C(=O)CCC4)cc2c1 (stereo not given)             200
 6  Cc1ccc2nc(N3CCOCC3)c(C3C(C#N)=C(N)Oc4[nH]nc(C)c43)cc2c1 (stereo not given)             250
 7  Cc1ccc2nc(N3CCOCC3)c(C3C(C#N)=C(N)Oc4c3c(=O)oc3ccccc43)cc2c1 (stereo not given)            12.5
 8  O=C(O)c1cn(C2CC2)c2cc(N3CCNCC3)c(F)cc2c1=O              25
 9  N#CC1=C(N)Oc2c(c(=O)oc3ccccc23)C1c1cc2ccccc2nc1N1CCOCC1 (stereo not given)             250
10  COc1ccc2nc(N3CCOCC3)c(C3C(C#N)=C(N)OC4=C3C(=O)CCC4)cc2c1 (stereo not given)             250
